These measurements were taken from the supplement of paper PMC10037445.

tested on: RAW-Dual; test: NF-kB SEAP reporter activity, fold change vs agonist alone; cytotoxicity flag (confluency mask): not cytotoxic; higher = enhanced NF-kB activity; settings: agonist: LPS (TLR4) 0.1 ug/mL
Over roughly 2,900 compounds, “NF-kB SEAP reporter activity, fold change vs agonist alone” has its median near 0.99; the highest 2% begin near 2.6. Shown is part of a subset that was picked to be rich in the highest values.
Parameter: NF-kB SEAP reporter activity. Scope: all listed entries.

compound	NF-kB SEAP reporter activity
C=CC(=O)N1CC(Nc2ncnc3[nH]ccc23)CCC1C (stereo not given) (library stock concentration (final ~1000-fold dilution): 10 mM)	0.655
[O-][n+]1cccc(-c2nc3c(Cl)cccc3cc2C(Nc2ncnc3cccnc23)C(F)(F)F)c1 (stereo not given) (library stock concentration (final ~1000-fold dilution): 10 mM)	2.33
CCOC1OC(=O)CC1NC(=O)C1CCCN1C(=O)C(NC(=O)c1ccc(N)c(Cl)c1)C(C)(C)C (stereo not given) (library stock concentration (final ~1000-fold dilution): 10 mM)	0.973
CS(=O)(=O)O.Cc1c(O)cccc1C(=O)NC(CSc1ccccc1)C(O)CN1CC2CCCCC2CC1C(=O)NC(C)(C)C (stereo not given) (library stock concentration (final ~1000-fold dilution): 10 mM)	4.08
CC(C)(C)NC(=O)C1CN(Cc2cccnc2)CCN1CC(O)CC(Cc1ccccc1)C(=O)NC1c2ccccc2CC1O.O=S(=O)(O)O (stereo not given) (library stock concentration (final ~1000-fold dilution): 10 mM)	1.3
